# measurement_description: Half-life in male ICR mouse at 20 mg/kg, po measured up to 24 hrs by LC-MS/MS analysis
# Type: ADME, organism-based
# reported_conditions: in vivo
Listing of recorded half-life by entry.
readout_type: half-life (h)

> print(dat)
                               smiles.entry  u  value.reported
1  Nc1nc(-c2ccco2)c2cnn(Cc3cccc(OCCCCCCC(=O)NO)n3)c2n1  h            1.48
2  Nc1nc(-c2ccco2)c2cnn(CCc3ccc(C(=O)Nc4ccccc4N)cc3)c2n1  h            2.24
3  Nc1nc(-c2ccco2)c2cnn(Cc3cccc(/C=C/C(=O)NO)c3)c2n1  h            7.53

====

# measurement_description: Half-life in male ICR mouse at 20 mg/kg, ip measured up to 24 hrs by LC-MS/MS analysis
# Assay type: ADME, organism-based
# reported_conditions: in vivo
readout_type: half-life (min)

> print(dat)
                               smiles.entry  readout.type    u  value.reported
1  Nc1nc(-c2ccco2)c2cnn(CCc3ccc(C(=O)Nc4ccccc4N)cc3)c2n1     half-life  min            49.8

====

# tgt: UniProt P29274
# Sequence (P29274 whole entry): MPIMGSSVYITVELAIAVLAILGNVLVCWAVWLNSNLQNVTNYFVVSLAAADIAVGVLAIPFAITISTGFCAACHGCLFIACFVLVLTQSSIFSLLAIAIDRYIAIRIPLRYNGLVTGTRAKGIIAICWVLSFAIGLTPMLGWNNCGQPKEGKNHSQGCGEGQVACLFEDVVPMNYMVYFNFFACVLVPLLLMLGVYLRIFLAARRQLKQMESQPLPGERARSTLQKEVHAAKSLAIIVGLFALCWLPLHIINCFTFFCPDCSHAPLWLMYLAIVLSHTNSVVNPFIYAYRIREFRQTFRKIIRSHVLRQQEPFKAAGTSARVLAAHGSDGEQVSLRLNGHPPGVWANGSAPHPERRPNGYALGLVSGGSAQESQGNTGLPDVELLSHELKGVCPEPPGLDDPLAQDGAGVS
pKi: −log10 of the molar value.
Listing of recorded pKi by entry.
readout_type: pKi

> print(dat)
                               smiles.entry  operator.symbol  value.reported
1  Cc1ccc(-c2nc(N)nc3c2cnn3Cc2ccc(C(=O)Nc3ccccc3N)cc2)o1                <            5.00
2  Cc1ccc(-c2nc(N)nc3c2cnn3Cc2cccc(OCCCCC(=O)NO)n2)o1                =            7.14
3  Nc1nc(-c2ccco2)c2cnn(Cc3cccc(OCCCCCCC(=O)NO)n3)c2n1                =            7.83
4  Nc1nc(-c2ccco2)c2cnn(Cc3cccc(OCCCCCCC(=O)NO)c3)c2n1                =            7.99
